Tested on: SARS-CoV-2
assay.overview: microbe, parasite or virus in culture
Assay type: cell-based
study.conditions: read-out: SARS-CoV-2 EC50 (μM) Cell culture

compound | EC50 (µM)
CC(C)C[C@H](NC(=O)OCC(C)(C)c1cccc(Cl)c1)C(=O)N[C@H](C=O)C[C@@H]1CCNC1=O [Compound 5g (Scheme 2)] | 0.18

###

assay.overview: Nonspecific cytotoxic effects (CC50), CytoTox 96 kit

molecule | CC50 at 72 h
CC(C)C[C@H](NC(=O)OC(Cc1ccccc1)C1CCC(F)(F)CC1)C(=O)N[C@H](C=O)C[C@@H]1CCNC1=O (stereo partly shown) [Compound 14b] | > 100 µM
CCCC1CCC(COC(=O)NC(CC(C)C)C(=O)NC(CC2CCNC2=O)C(O)S(=O)(=O)O)CC1 (stereo not shown) | > 100 µM
CC(C)C[C@H](NC(=O)O[C@H]1CC[C@H](C(C)C)CC1)C(=O)N[C@H](C=O)C[C@@H]1CCNC1=O | > 100 µM
CCCCC1CCC(OC(=O)NC(CC(C)C)C(=O)NC(CC2CCNC2=O)C(O)S(=O)(=O)O)CC1 (stereo not shown) | > 100 µM

###

measured.target: 3CLpro of SARS-CoV-2 (Severe acute respiratory syndrome coronavirus 2)
Construct: The codon-optimized cDNA of full length of 3CLpro of SARS-CoV-2; 6xHis (N); made in house; pET-28a(+) vector (points to E. coli, my inference)
assay.overview: biochemical
Format: biochemical
study.conditions: read-out: SARS-CoV-2 IC50 (μM) enzyme
observed.property: IC50 (µM)

compound | unit.label | numeric.result
CC(C)C[C@H](NC(=O)OCC(C)(C)c1cccc(Cl)c1)C(=O)N[C@H](C=O)C[C@@H]1CCNC1=O [Compound 5g (Scheme 2)] | µM | 0.3

###

measured.target: 3CLpro of SARS-CoV-2 (Severe acute respiratory syndrome coronavirus 2, UniProt P0DTD1)
Construct: The codon-optimized cDNA of full length of 3CLpro of SARS-CoV-2; 6xHis (N); made in house; pET-28a(+) vector (points to E. coli, my inference)
assay.overview: biochemical
Format: biochemical
pIC50: −log10 of the molar value.

compound | pIC50
CC(C)C[C@H](NC(=O)OCC(C)(C)Oc1ccc(Cl)cc1)C(=O)N[C@@H](CC1CCNC1=O)C(O)S(=O)(=O)O (stereo partly shown) | 6.62
CC(C)C[C@H](NC(=O)OC(Cc1ccccc1)C1CCC(F)(F)CC1)C(=O)N[C@H](C=O)C[C@@H]1CCNC1=O (stereo partly shown) [Compound 14b] | 6.64
CC(C)C[C@H](NC(=O)OCc1ccccc1F)C(=O)N[C@@H](C[C@@H]1CCNC1=O)C(O)S(=O)(=O)O (stereo partly shown) [Compound 17c] | 6.40
CC(C)C[C@H](NC(=O)OCc1ccc(F)cc1)C(=O)N[C@@H](C[C@@H]1CCNC1=O)C(O)S(=O)(=O)O (stereo partly shown) [Compound 19c] | 6.42
CC(C)CC(NC(=O)OCC1C(c2ccccc2)C1(F)F)C(=O)NC(CC1CCNC1=O)C(O)S(=O)(=O)O (stereo not shown) | 6.80
[2H]C([2H])(OC(=O)N[C@@H](CC(C)C)C(=O)N[C@@H](CC1CCNC1=O)C(O)S(=O)(=O)O)c1c(F)c(F)c(F)c(F)c1F (stereo partly shown) [Compound 22c] | 6.35
CC(C)C[C@H](NC(=O)OC(Cc1ccccc1)c1ccccc1)C(=O)N[C@H](C=O)C[C@@H]1CCNC1=O (stereo partly shown) [Compound 24b] | 5.39

Data provenance: patent US12583820B2
